# Tested on: Sorghum bicolor
# PROTOCOL_NOTES: Phytotoxic activity against Sorghum bicolor seeds assessed as inhibition of radicle growth at 10^-3 mol/l at 25 degC after 72 hr by filter-paper based radicle elongation assay
# Assay type: functional
PROPERTY_MEASURED: inhibition at 1000 µM (%)
The reply should be a number in %, with the unit left off.

COMPOUND	TGT	inhibition at 1000 µM, %
CC1=CC(=O)/C(=C(/C)Nc2ccccc2O)C(=O)O1	Sorghum bicolor	73.7
CCCCN/C(C)=C1\C(=O)C=C(C)OC1=O	Sorghum bicolor	79.7
CC(=O)C1C(=O)C=C(C)OC1=O (stereo unspecified) [DEHYDROACETIC ACID]	Sorghum bicolor	82.7
COC(=O)CN/C(C)=C1\C(=O)C=C(C)OC1=O	Sorghum bicolor	59.3

# input for lookup
Note inhibition at 1000 µM for the compound shown: "CC1=CC(=O)/C(=C(/C)NNc2ccc([N+](=O)[O-])cc2[N+](=O)[O-])C(=O)O1"
75.8

---

Reported inhibition (INH) by item:
# Tested on: Ipomoea grandifolia
# PROTOCOL_NOTES: Phytotoxicity against Ipomoea grandifolia seeds assessed as inhibition of aerial parts development at 5x10'-5 mol/kg measured at 21 days after seed sowing by green house trials
# Assay type: functional
The reply should be a number in %, with the unit left off.

Below are worked cases with known answers.
COMPOUND	TGT	UNITS_LABEL	inhibition (INH)
CC1=CC(=O)/C(=C(/C)Nc2cc([N+](=O)[O-])ccc2O)C(=O)O1	Ipomoea grandifolia	%	78.9
CC1=CC(=O)/C(=C(/C)Nc2cc(Cl)c([N+](=O)[O-])cc2O)C(=O)O1	Ipomoea grandifolia	%	43.7
CC[C@H](C)N/C(C)=C1\C(=O)C=C(C)OC1=O	Ipomoea grandifolia	%	84.4
COC(=O)[C@@H](N/C(C)=C1\C(=O)C=C(C)OC1=O)C(C)C	Ipomoea grandifolia	%	67.7
COC(=O)[C@H](C)N/C(C)=C1\C(=O)C=C(C)OC1=O	Ipomoea grandifolia	%	56.9

Note inhibition (INH) for the compound shown: "COC(=O)CN/C(C)=C1\C(=O)C=C(C)OC1=O"
41.7

Note inhibition (INH) for the compound shown: "CC1=CC(=O)/C(=C(/C)NCc2ccccc2)C(=O)O1"
85.9

Note inhibition (INH) for the compound shown: CC(=O)C1C(=O)C=C(C)OC1=O (stereo not drawn) [DEHYDROACETIC ACID]
7.6

---

# System: Cucumis sativus
# PROTOCOL_NOTES: Phytotoxic activity against Cucumis sativus (cucumber)seeds assessed as inhibition of radicle growth at 10^-3 mol/l at 25 degC after 72 hr by filter-paper based radicle elongation assay
# Format: functional
PROPERTY_MEASURED: inhibition at 1000 µM (%)
The reply should be a number in %, with the unit left off.

Note inhibition at 1000 µM for the molecule shown: "CC1=CC(=O)/C(=C(/C)Nc2cc(Cl)c([N+](=O)[O-])cc2O)C(=O)O1"
81.4

Note inhibition at 1000 µM for the molecule shown: "CC1=CC(=O)/C(=C(/C)Nc2cc([N+](=O)[O-])ccc2O)C(=O)O1"
58.1

---

# Tested on: Cucumis sativus
# PROTOCOL_NOTES: Phytotoxic activity against Cucumis sativus (cucumber)seeds assessed as inhibition of radicle growth at 10^-3 mol/l at 25 degC after 72 hr by filter-paper based radicle elongation assay
# Format: functional
Reported inhibition at 1000 µM by item:
The reply should be a number in %, with the unit left off.

Below are worked cases with known answers.
CHEMICAL_SMILES	inhibition at 1000 µM / %
CC1=CC(=O)/C(=C(/C)NCc2ccccc2)C(=O)O1	65.5
COc1ccc(N/C(C)=C2\C(=O)C=C(C)OC2=O)cc1	33.4
COC(=O)CN/C(C)=C1\C(=O)C=C(C)OC1=O	69.1
CC1=CC(=O)/C(=C(/C)NNc2ccccc2)C(=O)O1	19.2
CCCCN/C(C)=C1\C(=O)C=C(C)OC1=O	44

# input for lookup
Note inhibition at 1000 µM for the compound shown: "CC[C@H](C)N/C(C)=C1\C(=O)C=C(C)OC1=O"
87.5

The origin of these recorded values is ChEMBL document CHEMBL3046321.
